TARGET_UNDER_TEST: CIB1 and αIIb interaction (CIB1-GST : F-αIIb peptide) (Homo sapiens)
Construct: made in house; host or cells: BL-21 plus RIL cells (E. coli)
Sequence (Q99828 whole entry): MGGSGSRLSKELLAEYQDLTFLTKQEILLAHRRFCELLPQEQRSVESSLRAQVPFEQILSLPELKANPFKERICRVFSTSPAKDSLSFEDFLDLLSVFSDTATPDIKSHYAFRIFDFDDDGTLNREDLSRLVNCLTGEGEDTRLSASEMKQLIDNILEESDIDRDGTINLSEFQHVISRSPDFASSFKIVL
PROTOCOL_NOTES: FP assay, 1536-well qHTS format (primary and confirmatory screen)
Format: binding
REPORTED_CONDITIONS: qHTS primary screen hits, Table S2; read-out: IC50
EXPERIMENTAL_READOUT: pIC50
pIC50 is defined as minus the log10 of a concentration measured in mol/L.

-- ask Provide value of pIC50 for this record tested with CIB1 and αIIb interaction (CIB1-GST : F-αIIb peptide) (Homo sapiens): "CN1CCc2cccc3c2[C@H]1Cc1ccc(O)c(O)c1-3"
-- reply 4.90

-- ask Which measured pIC50 belongs to "Cc1cc(NS(=O)(=O)c2ccc(NC(=O)Cc3cccc4ccccc34)cc2)no1.O=C(O)C(F)(F)F" , tested on CIB1 and αIIb interaction (CIB1-GST : F-αIIb peptide) (Homo sapiens)?
-- reply 4.75

-- ask Param readout= pIC50; system= CIB1 and αIIb interaction (CIB1-GST : F-αIIb peptide) (Homo sapiens); entry= "Cl.O=S(=O)(Nc1nccs1)c1ccc(NCc2cc(Cl)ccc2O)cc1" ; returns value.
-- reply 4.70

-- ask Give recorded pIC50 with CIB1 and αIIb interaction (CIB1-GST : F-αIIb peptide) (Homo sapiens) for the following compound: "COc1cc([C@H]2Oc3cc([C@H]4Oc5cc(O)cc(O)c5C(=O)[C@@H]4O)ccc3O[C@@H]2CO)ccc1O"
-- reply 4.55

-- ask Observed pIC50 on CIB1 and αIIb interaction (CIB1-GST : F-αIIb peptide) (Homo sapiens) for "CSc1cc2c(s1)c1cnn(Cc3cccc(N)c3)c(=O)c1n2C.O=C(O)C(F)(F)F" , please.
-- reply 4.70

-- ask For the record "N#Cc1cnc(NS(=O)(=O)c2ccc(NC(=O)Cc3ccc(F)c(Cl)c3)cc2)s1.O=C(O)C(F)(F)F" , what value of pIC50 is listed for CIB1 and αIIb interaction (CIB1-GST : F-αIIb peptide) (Homo sapiens)?
-- reply 5.55
